# assayed system: human Kv7.2+3 (Homo sapiens, UniProt O43525+O43526)
# Construct: expressed in transfected cells; host or cells: HEK293
# assay summary: FLIPR-based thallium influx characterization of Kv7.2+3 modulators
# Assay type: cell-based
# condition summary: maximal response relative to the reference (retigabine) response; HEK293 human Kv7.2+3, Tl+ influx FLIPR; read-out: Efficacy
measurement kind: Emax (%)

O=C(Nn1c(N2CCCC2)nc2cc(F)cc(F)c2c1=O)[C@@H]1C[C@@H]1c1ccc(Cl)cc1 (relative stereo); 109
O=C(CSc1ccc(F)cc1)Nn1c(N2CCCC2)nc2ccccc2c1=O; 106
O=C(CSc1ccccc1)Nn1c(N2CCCC2)nc2ccccc2c1=O; 103

Data origin: patent US20110269783A1
